Values compiled from paper PMC6264310.

# procedure_text: Basal cytotoxicity, cell lines not separated in the text
# Format: cell-based
# conditions_used: human; stated in text without cell line
# Source text: 3.6. Cytotoxicity Assay The human cell lines MRC-5 normal lung fibroblasts (ATCC CCL-171), AGS gastric adenocarcinoma cells (ATCC CRL-1739), and Hep G2 hepatocellular carcinoma cells (ATCC HB-8065) were obtained from the American Type Culture Collection (ATCC, Manassas, VA, USA). […]
test_readout: IC50 at 24 h

>>> value("C=C1CCC2[C@](C)(CCC[C@]2(C)C(=O)OC)[C@H]1CC[C@@H](C)CC(=O)OC1=C(CCC(C)C)C(=O)C2=C(CCCC2)C1=O (stereo partly shown)")
"> 1000 µM"
